- experimentalProtocol: chemical genetic growth profiling, strain panel (AID 1159580);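 further: tested at 20 µM; growth read once vehicle control cultures reached saturation at 30 °C; 1 = growth at the plate median or of vehicle wells; lower values mean less growth of the strain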
- experimentalParameters: S. cerevisiae deletion strains, growth OD, locus YLL026W, hits give low values
About 2,000 (36%) of roughly 5,500 compounds were called active. Not shown: some 18% with an inconclusive outcome. This is one part of the list.
parameter: normalized growth
Answer using only a numeral; do not append any unit.

Check out these entries, answers already filled in.
compound	normalized growth
CC1=C(C(=O)O)N2C(=O)[C@@H](NC(=O)[C@@H](N)c3ccc(O)cc3)[C@H]2SC1	1.03
COCC1=C(C(=O)OC(C)OC(=O)OC(C)C)N2C(=O)[C@@H](NC(=O)/C(=N\OC)c3csc(N)n3)[C@H]2SC1 (stereo partly drawn)	0.971

Input line: Query: normalized growth; subject: CC(=O)c1c(O)cc(O)cc1O
Output line: 0.998

* * *

- experimentalProtocol: chemical genetic growth profiling, strain panel (AID 1159580)
- experimentalParameters: S. cerevisiae deletion strains, growth OD, locus YIR030C, strain dcg1, hits give low values
Among all 5,500 compounds or so, about 2,000 (36%) were called active. Another 18% or so got no clear call; they are omitted. The list shows a part of the results.
parameter: normalized growth

compound	testValue
CC(C)C1CCC(C(=O)N[C@@H](Cc2ccccc2)C(=O)O)CC1 (some centres not stated)	1.02 (inactive)

Input line: Query: normalized growth; subject: O=C1c2ccccc2C(=O)c2ccccc21
Output line: 0.998 (inactive)

* * *

- experimentalProtocol: chemical genetic growth profiling, strain panel (AID 1159580)
- experimentalParameters: S. cerevisiae deletion strains, growth OD, locus YJL115W, strain asf1, hits give low values
In all, about 5,500 compounds went through this assay and about 2,000 (36%) were called active. Not shown: some 18% with an inconclusive outcome. Some of the results follow.
parameter: normalized growth
Answer using only a numeral; do not append any unit.

Check out these entries, answers already filled in.
smi	normalized growth
CNC(=O)N(C)c1nnc(C(C)(C)C)s1	0.973
CNC(C)(C)Cc1ccccc1	1.01

Input line: Query: normalized growth; subject: CON
Output line: 0.989

* * *

- experimentalProtocol: chemical genetic growth profiling, strain panel (AID 1159580)
- experimentalParameters: S. cerevisiae deletion strains, growth OD, locus YIL066C, strain RNR3
In all, about 5,500 compounds went through this assay and about 2,000 (36%) were called active. Not shown: some 18% with an inconclusive outcome. Cut-off read from the data, not from the text of the source: active = normalized growth mostly below about 0.91 (no sharp cut-off); inconclusive = no clear call, values can overlap the other calls; inactive = mostly above about 0.92. This is one part of the list.
Mark one answer only. Choices: active, inactive

Some entries whose results are on file:
compound	answerLabel
CC(=O)NS(=O)(=O)c1ccc(N)cc1	inactive
CCC[C@@H]1C[C@@H](C(=O)N[C@H]([C@H]2O[C@H](SC)[C@H](O)[C@@H](O)[C@H]2O)[C@H](C)O)N(C)C1	inactive
O=C(N[C@@H](CO)[C@H](O)c1ccc([N+](=O)[O-])cc1)C(Cl)Cl	inactive

Input line: Outcome? C[N+]12CCC(CC1)C(OC(=O)C(O)(c1ccccc1)c1ccccc1)C2 (centres undefined)
Output line: inactive

Input line: Next: Cn1c(=O)c2c(ncn2CCO)n(C)c1=O
Output line: inactive

Input line: Next: CNC(=O)Oc1ccccc1OC(C)C
Output line: inactive

Input line: Next: O=C(c1ccccc1)c1ccc2n1CCC2C(=O)O (centres undefined)
Output line: inactive

Input line: Next: CCCN(CCC)c1c([N+](=O)[O-])cc(C(F)(F)F)cc1[N+](=O)[O-]
Output line: inactive

Input line: Next: Cc1cc(O)c2c(c1)C(=O)c1cccc(O)c1C2=O
Output line: inactive

Input line: Next: O[C@H]1[C@H](O)[C@@H](O)C2OC[C@H]1O2
Output line: inactive

Input line: Next: C=C(C)C1Cc2c(ccc3c(=O)c4c(oc23)COc2cc(OC)c(OC)cc2-4)O1 (centres undefined)
Output line: inactive

Input line: Next: CNC(=O)N(C)c1nnc(C(C)(C)C)s1
Output line: inactive

Input line: Next: Cc1cc(O)c2c(c1)C(=O)c1cc(O)cc(O)c1C2=O
Output line: active

* * *

Listing: normalized growth of selected compounds
- experimentalProtocol: chemical genetic growth profiling, strain panel (AID 1159580)
- experimentalParameters: S. cerevisiae deletion strains, growth OD, locus YGR252W, strain gcn5, hits give low values
The campaign covered roughly 5,500 compounds. About 2,000 (36%) were called active. About 18% were inconclusive and are not listed. Some of the results follow.
Answer using only a numeral; do not append any unit.

Input line: Query: normalized growth; subject: ClC1C(Cl)C(Cl)C(Cl)C(Cl)C1Cl (centres undefined)
Output line: 1.12

* * *

- experimentalProtocol: chemical genetic growth profiling, strain panel (AID 1159580);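 further: tested at 20 µM; growth read once vehicle control cultures reached saturation at 30 °C; 1 = growth at the plate median or of vehicle wells; lower values mean less growth of the strain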
- experimentalParameters: S. cerevisiae deletion strains, growth OD, locus YDL101C, strain DUN1, hits give low values
Screen size: about 5,500 compounds; about 2,000 (36%) were called active. Not shown: some 18% with an inconclusive outcome. The list shows a part of the results.
parameter: normalized growth
Answer using only a numeral; do not append any unit.

Check out these entries, answers already filled in.
compound	normalized growth
COc1ccccc1N1CC(C)(C)C(=O)N(C(=O)c2c(F)cccc2Cl)C1=S	1.03
Cn1c(=O)[nH]c2ncn(C)c2c1=O	1.01
COc1cc([C@@H]2c3cc4c(cc3[C@H](O)[C@H]3COC(=O)[C@H]23)OCO4)cc(OC)c1OC	1.02

Kindly review the next compound as well.
Input line: Query: normalized growth; subject: CC(=N/O)/C(C)=C/c1ccc(Cl)cc1
Output line: 0.835

* * *

Listing: normalized growth of selected compounds
- experimentalProtocol: chemical genetic growth profiling, strain panel (AID 1159580);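 further: tested at 20 µM; growth read once vehicle control cultures reached saturation at 30 °C; 1 = growth at the plate median or of vehicle wells; lower values mean less growth of the strain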
- experimentalParameters: S. cerevisiae deletion strains, growth OD, locus YNL197C, strain WHI3, hits give low values
Hit rate of the full screen: of about 5,500 compounds, about 2,000 (36%) were called active. Another 18% or so got no clear call; they are omitted. The list shows a part of the results.
Answer using only a numeral; do not append any unit.

Check out these entries, answers already filled in.
compound	parameter	testValue
CN(C)c1cc2c(Nc3ccc4c(cnn4Cc4ccccc4)c3)ncnc2cn1	normalized growth	1
C[N+](C)(C)CC#CCOC(=O)Nc1cccc(Cl)c1	normalized growth	0.973
O=C(c1ccccc1)c1ccc2n1CCC2C(=O)O (stereo not given)	normalized growth	1.01
N[C@@H](Cc1cnc[nH]1)C(=O)O	normalized growth	0.988

Input line: Query: normalized growth; subject: O=C(CCc1ccc(O)cc1)c1c(O)cc(O)cc1O
Output line: 1

Input line: Next: COc1ccc2c(c1)C13CCCCC1C(C2)N(C)CC3 (stereo not given)
Output line: 1.01

Input line: Next: COC(=O)c1c(-c2cc(OC)c(OC)c(OC)c2)c2ccnc(OCc3ncccn3)c2c(=O)n1Cc1ccnc(C)c1
Output line: 0.989

* * *

Listing: normalized growth of selected compounds
- experimentalProtocol: chemical genetic growth profiling, strain panel (AID 1159580);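 further: tested at 20 µM; growth read once vehicle control cultures reached saturation at 30 °C; 1 = growth at the plate median or of vehicle wells; lower values mean less growth of the strain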
- experimentalParameters: S. cerevisiae deletion strains, growth OD, locus YDL005C, strain med2, hits give low values
Screen size: about 5,500 compounds; about 2,000 (36%) were called active. Inconclusive results (about 18%) are left out. This is one part of the list.
Answer using only a numeral; do not append any unit.

Check out these entries, answers already filled in.
compound	testValue
CN1CCN(C2=Nc3cc(Cl)ccc3Nc3ccccc32)CC1	0.984
CC(=O)NC1C(O)OC(COS(=O)(=O)O)C(OC2OC(C(=O)O)C(OC3OC(CO)C(OC4OC(C(=O)O)C(O)C(O)C4OS(=O)(=O)O)C(OS(=O)(=O)O)C3NS(=O)(=O)O)C(O)C2OS(=O)(=O)O)C1O (stereo not drawn)	0.978

Input line: Query: normalized growth; subject: CC(=O)O[C@H]1CC2CCC3C(CC[C@@]4(C)C3C[C@H]([N+]3(C)CCCCC3)[C@@H]4OC(C)=O)[C@@]2(C)C[C@@H]1N1CCCCC1 (stereo partly drawn)
Output line: 1.03

Input line: Next: Cn1c(=O)c2c(ncn2CCO)n(C)c1=O
Output line: 1.02

Input line: Next: CC1(C)CC23C(=O)CCC(O)C2(C)CCC13 (stereo not drawn)
Output line: 0.97

Input line: Next: CCCC(=O)Nc1ccc(OCC(O)CNC(C)C)c(C(C)=O)c1 (stereo not drawn)
Output line: 1.01

Input line: Next: Cn1c(=O)[nH]c2nc[nH]c2c1=O
Output line: 0.993

Input line: Next: Oc1cccc2cccnc12
Output line: 0.646

Input line: Next: CC(C)=CCC/C(C)=C/CO
Output line: 0.979

Input line: Next: CC(C)[C@@H]1CC[C@@H](C)CC1=O
Output line: 0.998

Input line: Next: O=c1c(O)c(-c2ccccc2)oc2ccc3occc3c12
Output line: 0.951

Input line: Next: O=c1c(O)c(-c2ccc(O)cc2)oc2ccccc12
Output line: 0.965

Input line: Next: NNCc1ccccc1
Output line: 0.992
